- Test system: Vibrio cholera O1 Inaba DMST 16261
- test-context: MHB, 37 °C, 24 h
Where a SMILES comes first, the peptide text is derived from it.
experimental-endpoint: MIC

Enquiry: Any idea what MIC was measured for CC(C)C[C@H](NC(=O)[C@@H](N)CCCNC(=N)N)C(=O)N[C@@H](Cc1ccccc1)C(=O)N[C@@H](CCCNC(=N)N)C(=O)N[C@@H](CCCNC(=N)N)C(=O)N[C@H](C(=O)N[C@@H](CCCCN)C(=O)N[C@@H](CCCCN)C(=O)N[C@H](C(=O)N[C@@H](C)C(=O)NCC(N)=O)C(C)C)C(C)C [A3] (H-RLFRRVKKVAG-NH2; N-terminus assumed) ?
Return: >250 µg/mL

* * *

- System: Salmonella Typhimurium ATCC 13311
- test-context: ATCC 13311, 24 h
Where a SMILES comes first, the peptide text is derived from it.
experimental-endpoint: MIC

CC[C@H](C)[C@H](NC(=O)[C@H](CCCNC(=N)N)NC(=O)[C@H](CCCCN)NC(=O)[C@H](C)NC(=O)[C@@H](NC(=O)[C@@H](N)CCCCN)[C@@H](C)CC)C(=O)N[C@@H](Cc1c[nH]c2ccccc12)C(=O)N[C@@H](CCCCN)C(=O)N[C@H](C(=O)N[C@@H](CC(C)C)C(=O)N[C@@H](CCCNC(=N)N)C(=O)N[C@@H](CCCNC(=N)N)C(=O)N[C@@H](CCCNC(=N)N)C(=O)N[C@@H](CC(C)C)C(=O)N[C@@H](Cc1ccccc1)C(N)=O)[C@@H](C)CC [PA-15] (H-KIAKRIWKILRRRLF-NH2; N-terminus assumed) ... 1.95 µg/mL
CC(C)C[C@H](NC(=O)[C@@H](N)CCCNC(=N)N)C(=O)N[C@@H](Cc1ccccc1)C(=O)N[C@@H](CCCNC(=N)N)C(=O)N[C@@H](CCCNC(=N)N)C(=O)N[C@H](C(=O)N[C@@H](CCCCN)C(=O)N[C@@H](CCCCN)C(=O)N[C@H](C(=O)N[C@@H](C)C(=O)NCC(N)=O)C(C)C)C(C)C [A3] (H-RLFRRVKKVAG-NH2; N-terminus assumed) ... >250 µg/mL

Now look at this one.
Enquiry: Any idea what MIC was measured for CC[C@H](C)[C@H](NC(=O)[C@H](CC(=O)O)NC(=O)[C@H](Cc1ccccc1)NC(=O)[C@H](CC(C)C)NC(=O)CN)C(=O)N[C@H](C(=O)N[C@@H](CCCCN)C(=O)N[C@@H](CCCCN)C(=O)N[C@H](C(=O)N[C@@H](C)C(=O)NCC(N)=O)C(C)C)C(C)C [A0] (H-GLFDIVKKVAG-NH2; N-terminus assumed) ?
Return: >250 µg/mL

* * *

Below, each entry is listed alongside its reported MIC.
- Test system: Vibrio cholera O1 Inaba DMST 16261
- test-context: MHB, 37 °C, 24 h
Where a SMILES comes first, the peptide text is derived from it.
Field: numeric (µg/mL). Do not append units.

CC[C@H](C)[C@H](NC(=O)[C@H](CCCNC(=N)N)NC(=O)[C@H](CCCCN)NC(=O)[C@H](C)NC(=O)[C@@H](NC(=O)[C@@H](N)CCCCN)[C@@H](C)CC)C(=O)N[C@@H](Cc1c[nH]c2ccccc12)C(=O)N[C@@H](CCCCN)C(=O)N[C@H](C(=O)N[C@@H](CC(C)C)C(=O)N[C@@H](CCCNC(=N)N)C(=O)N[C@@H](CCCNC(=N)N)C(=O)N[C@@H](CCCNC(=N)N)C(N)=O)[C@@H](C)CC [PA-13] (H-KIAKRIWKILRRR-NH2; N-terminus assumed) ... 31.25
CC[C@H](C)[C@H](NC(=O)[C@H](CCCNC(=N)N)NC(=O)[C@H](CCCCN)NC(=O)[C@H](C)NC(=O)[C@@H](NC(=O)[C@@H](N)CCCCN)[C@@H](C)CC)C(=O)N[C@@H](Cc1c[nH]c2ccccc12)C(=O)N[C@@H](CCCCN)C(=O)N[C@H](C(=O)N[C@@H](CC(C)C)C(=O)N[C@@H](CCCNC(=N)N)C(=O)N[C@@H](CCCNC(=N)N)C(N)=O)[C@@H](C)CC [P7] (H-KIAKRIWKILRR-NH2; N-terminus assumed) ... 31.25
CC[C@H](C)[C@H](NC(=O)[C@H](CCCNC(=N)N)NC(=O)[C@H](CCCCN)NC(=O)[C@H](C)NC(=O)[C@@H](NC(=O)[C@@H](N)CCCCN)[C@@H](C)CC)C(=O)N[C@@H](Cc1c[nH]c2ccccc12)C(=O)N[C@@H](CCCCN)C(=O)N[C@H](C(=O)N[C@@H](CC(C)C)C(=O)N[C@@H](CCCNC(=N)N)C(=O)N[C@@H](CCCNC(=N)N)C(=O)N[C@@H](CCCNC(=N)N)C(=O)N[C@@H](CC(C)C)C(=O)N[C@@H](Cc1ccccc1)C(N)=O)[C@@H](C)CC [PA-15] (H-KIAKRIWKILRRRLF-NH2; N-terminus assumed) ... 3.91

Now look at this one.
Enquiry: Any idea what MIC was measured for CC[C@H](C)[C@H](NC(=O)[C@H](CCCNC(=N)N)NC(=O)[C@H](CCCCN)NC(=O)[C@H](C)NC(=O)[C@@H](NC(=O)[C@@H](N)CCCCN)[C@@H](C)CC)C(=O)N[C@@H](Cc1c[nH]c2ccccc12)C(=O)N[C@@H](CCCCN)C(=O)N[C@H](C(=O)N[C@@H](CC(C)C)C(=O)N[C@@H](CCCNC(=N)N)C(=O)N[C@@H](CCCNC(=N)N)C(=O)N[C@@H](CCCNC(=N)N)C(=O)N[C@@H](CC(C)C)C(N)=O)[C@@H](C)CC [PA-14] (H-KIAKRIWKILRRRL-NH2; N-terminus assumed) ?
Return: 7.81

* * *

- Tested on: Escherichia coli ATCC 25922
- test-context: ATCC 25922, 24 h
Where a SMILES comes first, the peptide text is derived from it.
experimental-endpoint: MIC

Enquiry: Any idea what MIC was measured for CC[C@H](C)[C@H](NC(=O)[C@H](CCCNC(=N)N)NC(=O)[C@H](CCCCN)NC(=O)[C@H](CCCCN)NC(=O)[C@@H](NC(=O)[C@H](CCCCN)NC(=O)[C@H](CCC(=O)O)NC(=O)[C@H](CCCCN)NC(=O)[C@@H](N)CCCNC(=N)N)[C@@H](C)CC)C(=O)NCC(=O)N[C@@H](CCCCN)C(=O)N[C@H](C(=O)N[C@@H](CC(=O)O)C(=O)N[C@@H](CCCNC(=N)N)C(=O)N[C@@H](CC(C)C)C(N)=O)[C@@H](C)CC [P0] (H-RKEKIKKRIGKIDRL-NH2; N-terminus assumed) ?
Return: >250 µg/mL

* * *

- Tested on: Escherichia coli ATCC 25922
- test-context: ATCC 25922, 24 h
Where a SMILES comes first, the peptide text is derived from it.
Below, each entry is listed alongside its reported MIC.
Field: numeric (µg/mL). Do not append units.

CC[C@H](C)[C@H](NC(=O)[C@H](CCCNC(=N)N)NC(=O)[C@H](CCCCN)NC(=O)[C@H](C)NC(=O)[C@@H](NC(=O)[C@@H](N)CCCCN)[C@@H](C)CC)C(=O)N[C@@H](Cc1c[nH]c2ccccc12)C(=O)N[C@@H](CCCCN)C(=O)N[C@H](C(=O)N[C@@H](CC(C)C)C(=O)N[C@@H](CCCNC(=N)N)C(=O)N[C@@H](CCCNC(=N)N)C(=O)N[C@@H](CCCNC(=N)N)C(=O)N[C@@H](CC(C)C)C(N)=O)[C@@H](C)CC [PA-14] (H-KIAKRIWKILRRRL-NH2; N-terminus assumed) ... 15.63

Enquiry: Any idea what MIC was measured for CC[C@H](C)[C@H](NC(=O)[C@H](CCCNC(=N)N)NC(=O)[C@H](CCCCN)NC(=O)[C@H](C)NC(=O)[C@@H](NC(=O)[C@@H](N)CCCCN)[C@@H](C)CC)C(=O)N[C@@H](Cc1c[nH]c2ccccc12)C(=O)N[C@@H](CCCCN)C(=O)N[C@H](C(=O)N[C@@H](CC(C)C)C(=O)N[C@@H](CCCNC(=N)N)C(=O)N[C@@H](CCCNC(=N)N)C(N)=O)[C@@H](C)CC [P7] (H-KIAKRIWKILRR-NH2; N-terminus assumed) ?
Return: 15.63

* * *

- Test system: Enterococcus faecalis ATCC 29212
- test-context: ATCC 29212, 24 h
Where a SMILES comes first, the peptide text is derived from it.
Below, each entry is listed alongside its reported MIC.
Field: numeric (µg/mL). Do not append units.

CC[C@H](C)[C@H](NC(=O)[C@H](CCCNC(=N)N)NC(=O)[C@H](CCCCN)NC(=O)[C@H](C)NC(=O)[C@@H](NC(=O)[C@@H](N)CCCCN)[C@@H](C)CC)C(=O)N[C@@H](Cc1c[nH]c2ccccc12)C(=O)N[C@@H](CCCCN)C(=O)N[C@H](C(=O)N[C@@H](CC(C)C)C(=O)N[C@@H](CCCNC(=N)N)C(=O)N[C@@H](CCCNC(=N)N)C(=O)N[C@@H](CCCNC(=N)N)C(=O)N[C@@H](CC(C)C)C(N)=O)[C@@H](C)CC [PA-14] (H-KIAKRIWKILRRRL-NH2; N-terminus assumed) ... 125

Now look at this one.
Enquiry: Any idea what MIC was measured for CC[C@H](C)[C@H](NC(=O)[C@H](CCCNC(=N)N)NC(=O)[C@H](CCCCN)NC(=O)[C@H](C)NC(=O)[C@@H](NC(=O)[C@@H](N)CCCCN)[C@@H](C)CC)C(=O)N[C@@H](Cc1c[nH]c2ccccc12)C(=O)N[C@@H](CCCCN)C(=O)N[C@H](C(=O)N[C@@H](CC(C)C)C(=O)N[C@@H](CCCNC(=N)N)C(=O)N[C@@H](CCCNC(=N)N)C(=O)N[C@@H](CCCNC(=N)N)C(N)=O)[C@@H](C)CC [PA-13] (H-KIAKRIWKILRRR-NH2; N-terminus assumed) ?
Return: 250

src = paper PMC7272617
